The origin of these recorded values is paper PMC9295577.

# assay text: DHA pharmacokinetics in NSG mice after oral artesunate, one-compartment model
# Type: in vivo
# experimental parameters: mouse, whole blood, mice, computed from CL and Vd, read-out: t1/2, half-clearance time (converted)
endpoint label: half-life (min)
Number in min, nothing else.

Ask: Answer with the recorded half-life for the molecule listed here: C[C@H]1[C@@H](O)O[C@@H]2O[C@@]3(C)CC[C@H]4[C@H](C)CC[C@@H]1[C@@]24OO3 [DHA, dihydroartemisinin]
Result: 24
